# Test system: M14 melanoma
# Method Notes: NCI tumour cell line growth inhibition, 48 h
# key: entry, value: TGI
Measurement Type: TGI

[
  {
    "Compound": "O=c1oc2ccccc2c(Nc2ccc3c(c2)Sc2ccccc2O3)c1[N+](=O)[O-]",
    "Assay Result": "> 100 µM"
  },
  {
    "Compound": "CCOC(=O)Nc1cc2c(c(N)n1)N=C(c1ccc(OC)cc1)CN2",
    "Assay Result": "19.1 µM"
  },
  {
    "Compound": "CC(=O)SCCC(NC(=S)Nc1ccccc1)P(=O)(Oc1ccccc1)Oc1ccccc1 (stereo not given)",
    "Assay Result": "> 100 µM"
  },
  {
    "Compound": "C=CCCON(C(=O)OC(C)(C)C)c1ccccc1",
    "Assay Result": "> 100 µM"
  },
  {
    "Compound": "O=C1OC(CCCN2CCCCC2)(c2ccccc2)CC12CCCC2 (stereo not given)",
    "Assay Result": "34.3 µM"
  },
  {
    "Compound": "O=C(Oc1ccc[nH]c1=O)c1cc([N+](=O)[O-])cc([N+](=O)[O-])c1",
    "Assay Result": "> 100 µM"
  },
  {
    "Compound": "CCOC1C(Br)Cn2c(=O)c3cc4ccccc4cc3c(=O)n2C1C (stereo not given)",
    "Assay Result": "> 100 µM"
  },
  {
    "Compound": "Cc1c(N2C(=O)C(Cl)C2/C=C/c2ccccc2)c(=O)n(-c2ccccc2)n1C (stereo not given)",
    "Assay Result": "36 µM"
  },
  {
    "Compound": "COc1ccc2c(c1)/C(=C\\c1c(Cl)[nH]c3cc(C)c(OC)cc13)C(=O)N2",
    "Assay Result": "5.63 µM"
  },
  {
    "Compound": "COc1ccc2c(c1)C(=O)CCc1cc(OC)c(OC)c(OC)c1-2",
    "Assay Result": "> 100 µM"
  }
]

----------
# Test system: MOLT-4 leukemia
# Method Notes: NCI tumour cell line growth inhibition, 48 h; in the data active = GI50 below about 0.43 µM; inactive = the rest
Labels: active, inactive

[
  {
    "Compound": "CCOc1cc(C(C)(C)C)ccc1C1=N[C@H](c2ccc(Cl)cc2)[C@H](c2ccc(Cl)cc2)N1C(=O)N1CCN(CC#Cc2cccc3c2CN([C@@H]2CCC(=O)NC2=O)C3=O)CC1",
    "Label Class": "active"
  },
  {
    "Compound": "NC(CSC(c1ccccc1)(c1ccccc1)c1ccccc1)C(=O)NCC(=O)O (stereo not drawn)",
    "Label Class": "inactive"
  },
  {
    "Compound": "COc1ccc2c(c1)NC1=C(C(=O)OC1)C2c1cc(OC)c(OC)c(OC)c1 (stereo not drawn)",
    "Label Class": "active"
  },
  {
    "Compound": "CN(C)C/C=C/C(=O)Nc1ccc(C(=O)N[C@@]2(C)CCC[C@@H](Nc3ncc(Cl)c(-c4c[nH]c5ccccc45)n3)C2)nc1",
    "Label Class": "active"
  },
  {
    "Compound": "Nc1n[nH]c2cccc(C#Cc3cccc(NC(=O)c4cccc(C(F)(F)F)c4)c3)c12",
    "Label Class": "inactive"
  },
  {
    "Compound": "CN(c1ccc(NC(=O)Nc2c(Cl)cccc2Cl)cc1)c1ccnc(Nc2cccc(CS(C)(=O)=O)c2)n1",
    "Label Class": "inactive"
  },
  {
    "Compound": "C#CC1(O)C(COP(=O)(O)OCC(COP(=O)(O)OCC2OC(n3cc(F)c(=O)[nH]c3=O)CC2O)OCCCCCCCCCCCCCCCCCC)OC(n2ccc(N)nc2=O)C1O (stereo not drawn)",
    "Label Class": "active"
  },
  {
    "Compound": "Cc1cc(Cl)ccc1OCC(=O)Nc1nc2c(Cl)cccc2s1",
    "Label Class": "inactive"
  },
  {
    "Compound": "CCN(CC)CCNC(Cc1ccccc1)c1ccc(OCc2ccccc2)cc1 (stereo not drawn)",
    "Label Class": "inactive"
  },
  {
    "Compound": "CCOC(=O)[CH-]C(=O)C12CC3CC(CC(C3)C1)C2.CCOC(=O)[CH-]C(=O)C12CC3CC(CC(C3)C1)C2.CC[O-].CC[O-].[Ti+4]",
    "Label Class": "inactive"
  },
  {
    "Compound": "CCCC(C)c1ccc(OCCCCCCN2CCNCC2)cc1 (stereo not drawn)",
    "Label Class": "inactive"
  },
  {
    "Compound": "COc1ccc2c(c1)C(=O)/C(=C/c1cccc(OCC(=O)c3ccccc3)c1)O2",
    "Label Class": "inactive"
  },
  {
    "Compound": "COc1cc(Nc2ncccc2C(=O)Nc2nc3ccc(F)cc3s2)cc(OC)c1OC",
    "Label Class": "inactive"
  }
]
